In this section we review reported log10 of half-life values for a set of molecules.
test: physchem; settings: buffer, pH 6.5
readout: log10 of half-life (log10 of the value in min)

| molecule | readout | assay value |
| --- | --- | --- |
| CC[C@H](C)[C@H](N)C(=O)N[C@@H](CCCCN)C(=O)OC(C)OC(=O)N1CCC(OC(=O)C(O)(c2ccccc2)c2ccccc2)CC1.Cl.Cl (stereo partly shown) | log10 of half-life | 2.47 |
| CC(OC(=O)[C@H](NC(=O)[C@@H](N)CCCCN)C(C)(C)C)OC(=O)N1CCC(OC(=O)C(O)(c2ccccc2)c2ccccc2)CC1.Cl.Cl (stereo partly shown) | log10 of half-life | 3.55 |
| CC(OC(=O)[C@@H](NC(=O)[C@@H](N)CCCCN)C(C)C)OC(=O)N1CCC(OC(=O)C(O)(c2ccccc2)c2ccccc2)CC1.Cl.Cl (stereo partly shown) | log10 of half-life | 2.94 |
| CC(OC(=O)[C@H](CCCCN)NC(=O)CCN)OC(=O)N1CCC(OC(=O)C(O)(c2ccccc2)c2ccccc2)CC1.Cl.Cl (stereo partly shown) | log10 of half-life | 3.79 |
| CC(OC(=O)[C@H](NC(=O)[C@@H](N)CCCCN)C(C)C)OC(=O)N1CCC(OC(=O)C(O)(c2ccccc2)c2ccccc2)CC1.Cl.Cl (stereo partly shown) | log10 of half-life | 2.72 |
| CC(OC(=O)[C@@H](N)CCCCN)OC(=O)N1CCC(OC(=O)C(O)(c2ccccc2)c2ccccc2)CC1.Cl.Cl (stereo partly shown) | log10 of half-life | 2.37 |
| CC(OC(=O)[C@@H](NC(=O)[C@@H](N)CCCCN)C(C)(C)C)OC(=O)N1CCC(OC(=O)C(O)(c2ccccc2)c2ccccc2)CC1.Cl.Cl (stereo partly shown) | log10 of half-life | 4.05 |

----------
assay: physchem; conditions: buffer, pH 7.4
In this section we review reported half-life values for a set of molecules.

| molecule | half-life [h] |
| --- | --- |
| CC(OC(=O)[C@H](NC(=O)[C@@H](N)CCCCN)C(C)(C)C)OC(=O)N1CCC(OC(=O)C(O)(c2ccccc2)c2ccccc2)CC1.Cl.Cl (stereo partly shown) [Compound 23] | 36.6 |
| CC(OC(=O)[C@H](CCCCN)NC(=O)CCN)OC(=O)N1CCC(OC(=O)C(O)(c2ccccc2)c2ccccc2)CC1.Cl.Cl (stereo partly shown) [Compound 28] | 11.5 |
| CC(OC(=O)[C@@H](NC(=O)[C@@H](N)CCCCN)C(C)(C)C)OC(=O)N1CCC(OC(=O)C(O)(c2ccccc2)c2ccccc2)CC1.Cl.Cl (stereo partly shown) [Compound 22] | 67 |
| CC(OC(=O)[C@H](NC(=O)[C@@H](N)CCCCN)C(C)C)OC(=O)N1CCC(OC(=O)C(O)(c2ccccc2)c2ccccc2)CC1.Cl.Cl (stereo partly shown) [Compound 26] | 1.8 |
| CC(OC(=O)[C@@H](NC(=O)[C@@H](N)CCCCN)C(C)C)OC(=O)N1CCC(OC(=O)C(O)(c2ccccc2)c2ccccc2)CC1.Cl.Cl (stereo partly shown) [Compound 25] | 4.4 |
| CC(OC(=O)[C@@H](N)CCCCN)OC(=O)N1CCC(OC(=O)C(O)(c2ccccc2)c2ccccc2)CC1.Cl.Cl (stereo partly shown) [Compound 17] | 1.1 |
| CC[C@H](C)[C@H](N)C(=O)N[C@@H](CCCCN)C(=O)OC(C)OC(=O)N1CCC(OC(=O)C(O)(c2ccccc2)c2ccccc2)CC1.Cl.Cl (stereo partly shown) [Compound 27] | 0.9 |
